src = patent US20130337564A1

System: cells expressing pluripotency markers derived from human embryonic stem cells
Experiment: MTS viability (toxicity) assay of cells expressing pluripotency markers
Assay type: cell-based
Settings: cmpd conc 2.5 μM; MTS on day 4
Can you tell me Average of raw data (duplicate), optical density at 490 nm for the items I'm about to list?

Here is how some molecules turned out for Average of raw data (duplicate), optical density at 490 nm.
Request: Report Average of raw data (duplicate), optical density at 490 nm for COC(=O)c1cncc(-n2cc(C3=C(c4nn(CCO)c5ccccc45)C(=O)NC3=O)c3cc(Cl)ccc32)c1 please.
Result: 0.7630

Request: Report Average of raw data (duplicate), optical density at 490 nm for Cc1c[nH]c(-c2cnc(NCCNc3ccc(C#N)cn3)nc2-c2ccc(Cl)cc2Cl)n1 please.
Result: 0.9324

Request: Report Average of raw data (duplicate), optical density at 490 nm for CN(C)c1cccc(-n2cc(C3=C(c4nn(CCO)c5ccccc45)C(=O)NC3=O)c3ccccc32)c1 please.
Result: 0.7608

Request: Report Average of raw data (duplicate), optical density at 490 nm for CN(CCO)CCCn1nc(C2=C(c3cn(-c4cccnc4)c4ccccc34)C(=O)NC2=O)c2ccccc21 please.
Result: 0.7480

Request: Report Average of raw data (duplicate), optical density at 490 nm for O=C1NC(=O)C2=C1c1cn(c3ccccc13)CCOCCOCCN(Cc1cccs1)CCn1cc2c2ccccc21 please.
Result: 0.7939

// for each molecule below, give its Average of raw data (duplicate), optical density at 490 nm
1. CN(C)c1ccc(-n2cc(C3=C(c4nn(CCO)c5ccccc45)C(=O)NC3=O)c3cc(Cl)ccc32)cn1
2. O=C1NC(=O)C(c2cn(CCOCCOCCO)c3ccccc23)=C1c1cn(CCO)c2ccccc12

Result:
1: 0.2669; 2: 0.8272

====

Tested on: Sox17 expression in human embryonic stem cells (H9 line)
Experiment: High content screening assay: Sox17 protein expression (differentiation)
Format: cell-based
Conditions: 10 μM test compound with 100 ng/ml activin A on days 1-2; H9; total intensity by IN Cell Analyzer; strong and moderate hits
Can you tell me SOX17 Expression, Fold over Wnt 3a/AA control for the items I'm about to list?

Here is how some compounds turned out for SOX17 Expression, Fold over Wnt 3a/AA control.
Request: Report SOX17 Expression, Fold over Wnt 3a/AA control for O=C1NC(=O)C2=C1c1cn(c3ccccc13)CCOCCOCCOCCn1cc2c2ccccc21 [Compound 163] please.
Result: 0.9266 Fold over Wnt 3a/AA control

Request: Report SOX17 Expression, Fold over Wnt 3a/AA control for CCN1CCOCCn2cc(c3ccccc32)C2=C(C(=O)NC2=O)c2cn(c3ccccc23)CCOCC1 [Compound 15] please.
Result: 1.2678 Fold over Wnt 3a/AA control

Request: Report SOX17 Expression, Fold over Wnt 3a/AA control for O=C1NC(=O)C2=C1c1cn(c3ncccc13)CCOCCOCCOCCOCCn1cc2c2cccnc21 [Compound 6] please.
Result: 0.9706 Fold over Wnt 3a/AA control

// for each compound below, give its SOX17 Expression, Fold over Wnt 3a/AA control
1. O=C1NC(=O)C2=C1c1cn(c3ncccc13)CCOCCOCCOCCOCCn1cc2c2cccnc21 [Compound 169]
2. O=C1NC(=O)C2=C1c1cn(c3ncccc13)CCOCCOCCOCCn1cc2c2cccnc21 [Compound 167]
3. O=C1CCCCn2cc(c3cccnc32)C2=C(C(=O)NC2=O)c2cn(c3ncccc23)CCCC1 [Compound 11]

Result:
1: 1.0342 Fold over Wnt 3a/AA control; 2: 0.9014 Fold over Wnt 3a/AA control; 3: 0.5686 Fold over Wnt 3a/AA control

====

System: cells expressing pluripotency markers derived from human embryonic stem cells
Test: MTS viability (toxicity) assay of cells expressing pluripotency markers
Type: cell-based
Conditions: MTS viability assay raw reading, replicate 2
Hi! Could you tag entries with Raw data (duplicate), second replicate below 0.7 as class 1, and those at or above as class 0? Much appreciated.

Request: # TODO verify Raw data (duplicate), second replicate < 0.7 strictly for this molecule: COc1ccccc1C1=C(c2cn(CCCNC(C)=O)c3ncccc23)C(=O)NC1=O [Compound 27]
Result: class 1

In the following, a different molecule is considered.
Request: # TODO verify Raw data (duplicate), second replicate < 0.7 strictly for this molecule: O=C1NC(=O)C(c2cn(-c3cccnc3)c3ccccc23)=C1c1cn(CCO)c2ccccc12 [Compound 206]
Result: class 0

====

Can you tell me % Control (percentage viability of control) for the items I'm about to list?
System: cells expressing pluripotency markers derived from human embryonic stem cells
Assay: MTS viability (toxicity) assay of cells expressing pluripotency markers
Assay type: cell-based
Conditions: cmpd conc 10 μM; MTS on day 4; relative to Activin A + Wnt3a positive control
Numbers only, in %.

Request: Report % Control (percentage viability of control) for CN1CCN(C)CCn2cc(c3ccccc32)C2=C(C(=O)NC2=O)c2cn(c3ccccc23)CC1 please.
Result: 81.0

Request: Report % Control (percentage viability of control) for CCN1CCOCCOCCn2cc(c3ccccc32)C2=C(C(=O)NC2=O)c2cn(c3ccccc23)CC1 please.
Result: 0.5

Request: Report % Control (percentage viability of control) for O=C1NC(=O)C2=C1c1cn(c3ccccc13)CCOCCOCCN(Cc1cccc3ccccc13)CCn1cc2c2ccccc21 please.
Result: 99.5

Now examine the next entry.
Request: Report % Control (percentage viability of control) for O=C1NC(=O)C2=C1c1cn(c3ccccc13)CCOCCOCCN(Cc1cccs1)CCn1cc2c2ccccc21 please.
Result: 24.1

====

Tested on: human embryonic stem cell line H1
Experiment: Dose titration secondary assay: cell number, H1
Assay type: cell-based
Conditions: Homo sapiens, Embryonic stem cell, Conc 0.313 μM, positive control (Wnt3a/Activin A) normalized to 1.000
Can you tell me activity at 0.313 µM for the items I'm about to list?
One number for each entry, in %.

Here is how some molecules turned out for activity at 0.313 µM.
Request: Report activity at 0.313 µM for O=C1NC(=O)C(c2nn(CCCO)c3ccccc23)=C1c1cn(-c2cccnc2)c2ccc(Cl)cc12 please.
Result: 103

Request: Report activity at 0.313 µM for CN(CCO)CCCn1nc(C2=C(c3cn(-c4cccnc4)c4ccccc34)C(=O)NC2=O)c2ccccc21 please.
Result: 75.4

Request: Report activity at 0.313 µM for CN(C)c1cccc(-n2cc(C3=C(c4nn(CCO)c5ccccc45)C(=O)NC3=O)c3ccccc32)c1 please.
Result: 66.5

// for each molecule below, give its activity at 0.313 µM
1. OCCC#Cc1nc(-c2ccc(F)cc2)c(-c2ccncc2)n1CCCc1ccccc1
2. O=C1NC(=O)C(c2cn(-c3cccnc3)c3ccccc23)=C1c1cn(CCO)c2ccccc12
3. CC(C)(O)CCn1nc(C2=C(c3cn(-c4cccnc4)c4ccccc34)C(=O)NC2=O)c2ccccc21
4. CN(C)c1ccc(-n2cc(C3=C(c4nn(CCO)c5ccccc45)C(=O)NC3=O)c3cc(Cl)ccc32)cn1

Result:
1. 122
2. 93.1
3. 102
4. 121

====

Tested on: cells expressing pluripotency markers derived from human embryonic stem cells
Test: MTS viability (toxicity) assay of cells expressing pluripotency markers
Format: cell-based
Conditions: MTS viability assay raw reading, replicate 2
Can you tell me Raw data (duplicate), second replicate for the items I'm about to list?
Numbers only.

Here is how some compounds turned out for Raw data (duplicate), second replicate.
Request: Report Raw data (duplicate), second replicate for Cn1cc(C2=C(c3nn(CCCn4ccnn4)c4ccccc34)C(=O)NC2=O)c2cc(Cl)ccc21 please.
Result: 0.697

Request: Report Raw data (duplicate), second replicate for CCN1CCOCCn2cc(c3ccccc32)C2=C(C(=O)NC2=O)c2cn(c3ccccc23)CCOCC1 please.
Result: 0.134

Request: Report Raw data (duplicate), second replicate for Cn1ccc(C2=C(c3cn(CCCO)c4ncccc34)C(=O)NC2=O)n1 please.
Result: 0.913

Continuing:
Request: Report Raw data (duplicate), second replicate for O=C1NC(=O)C2=C1c1cn(c3ncccc13)CCOCCOCCOCCOCCn1cc2c2cccnc21 please.
Result: 0.672

====

Can you tell me activity at 0.625 µM for the items I'm about to list?
System: human embryonic stem cell line H1
Test: Dose titration secondary assay: cell number, H1
Format: cell-based
Conditions: Homo sapiens, Embryonic stem cell, Conc 0.625 μM, positive control (Wnt3a/Activin A) normalized to 1.000
Numbers only, in %.

Here is how some molecules turned out for activity at 0.625 µM.
Request: Report activity at 0.625 µM for COC(=O)c1cncc(-n2cc(C3=C(c4nn(CCO)c5ccccc45)C(=O)NC3=O)c3cc(Cl)ccc32)c1 [Compound 150] please.
Result: 102

Request: Report activity at 0.625 µM for O=C1NC(=O)C(c2cn(CCOCCOCCNC3CCCc4ccccc43)c3ccccc23)=C1c1cn(CCNC2CCCc3ccccc32)c2ccccc12 (stereo not drawn) [Compound 144] please.
Result: 89.5

Request: Report activity at 0.625 µM for O=C1NC(=O)C(c2nn(CCCO)c3ccccc23)=C1c1cn(-c2cccnc2)c2ccc(Cl)cc12 [Compound 52] please.
Result: 130

Request: Report activity at 0.625 µM for CN(C)CCCn1c2c(c3ccccc31)C1=C(C(=O)NC1=O)N(c1cccc(Cl)c1)C2 [Compound 101] please.
Result: 69.9

Request: Report activity at 0.625 µM for O=C1NC(=O)C(c2cn(CCOCCOCCO)c3ccccc23)=C1c1cn(CCO)c2ccccc12 [Compound 110] please.
Result: 119

// for each molecule below, give its activity at 0.625 µM
1. Cc1c[nH]c(-c2cnc(NCCNc3ccc(C#N)cn3)nc2-c2ccc(Cl)cc2Cl)n1 [Compound 221]
2. O=C1NC(=O)C(c2cn(-c3cccnc3)c3ccccc23)=C1c1cn(CCO)c2ccccc12 [Compound 206]
3. O=C1NC(=O)C2=C1Nc1cccc(c1)OCCC/C=C\CCCOc1cccc2c1 [Compound 233]

Result:
[111, 109, 73.6]

// for each molecule below, give its activity at 0.625 µM
1. CN(CCO)CCCn1nc(C2=C(c3cn(-c4cccnc4)c4ccccc34)C(=O)NC2=O)c2ccccc21 [Compound 198]
2. CN(C)c1ccc(-n2cc(C3=C(c4nn(CCO)c5ccccc45)C(=O)NC3=O)c3cc(Cl)ccc32)cn1 [Compound 148]
3. OCCC#Cc1nc(-c2ccc(F)cc2)c(-c2ccncc2)n1CCCc1ccccc1 [Compound 158]
4. O=C1NC(=O)C(c2nn(CCO)c3ccccc23)=C1c1cn(-c2cncnc2)c2ccccc12 [Compound 226]
5. O=C1NC(=O)C(c2cn(CCCO)c3ncccc23)=C1c1cnccn1 [Compound 47]

Result:
[74.2, 136, 123, 80.5, 83.2]

// for each molecule below, give its activity at 0.625 µM
1. CN(C)c1cccc(-n2cc(C3=C(c4nn(CCO)c5ccccc45)C(=O)NC3=O)c3ccccc32)c1 [Compound 145]
2. CC(C)(O)CCn1nc(C2=C(c3cn(-c4cccnc4)c4ccccc34)C(=O)NC2=O)c2ccccc21 [Compound 223]

Result:
71.3
103
